This section presents binders with their documented koff values.
- system_under_test: T1, CD137 protein (UniProt Q07011 24-186, limits assumed)
- T1 construct: also called CD137 antigen; CD137 receptor
- test_protocol: BLI (Octet Red 96), antibody on anti-human Fc sensors, CD137 protein in solution, 1:1 model
Could you give the number and then its unit, please?

[
  {
    "binder": "reference antibody 371 (murine/human chimeric) (antibody, V domains shown) VH: QVQLQQSGAELVRPGASVTLSCKASGYTFAGFEMHWIKQTPVHGLGWIGAIDPKTGGTDYNQKFKDKALLTADKSSNTAYMELRSLTSEDSAVYYCTRDLGYFDVWGTGTTVTVSS VL: DIQMTQTTSSLSASLGDRVTISCRASQDIRSNLNWYQQKPDGTVKLLIYYTSRLHSGVPSRFSGSGSGTDYSLTISNLEQEDIATYFCQQSEKLPRTFGGGTKLEIRR",
    "koff": "0.0011 s⁻¹"
  }
]

// next item, koff requested
So what does the record say about koff for humanized anti-CD137 antibody clone 3717 (IgG4 S228P/kappa) (antibody, V domains shown) VH: QVQLVQSGAEVVKPGASVKLSCKASGYTFAGFEMHWIRQAPGQGLGWIGAIDPKTGGTDYNQKFKDRATLTADTSISTAYMELSRLRSDDTAVYYCTRDLGYFDVWGQGTLVTVSS VL: DIQMTQSPSSLSASVGDRVTITCRASQDIRSNLNWYQQKPGKAPKLLIYYTSRLHSGVPSRFSGSGSGTDFTLTISSLQPEDFATYYCQQSEKLPRTFGGGTKVEIRR ?
0.00034 s⁻¹

Cited source for all entries: patent US20210246218A1
